Reference for the values: PubChem BioAssay

Assay: compound effects on multiple myeloma cell viability – MM1S, calcein-AM fluorescence, 48 h, basal, profiling panel (AID 1165);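 also: viability of MM1S multiple myeloma cells under basal unstimulated conditions; test concentration not given here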
Details: higher = more signal
reportedEndpoint: z-score
Answers are plain numbers.

Batch request: z-score per item, same order as input.
1. O=c1cccc(-c2ccccc2Cl)o1
2. CO[C@H]1O[C@H](CO)[C@@H](OC(=O)Nc2ccccc2-c2ccccc2)[C@H](OC(=O)Nc2ccccc2-c2ccccc2)[C@@H]1OC(=O)Nc1ccccc1-c1ccccc1
3. CN1CCC(CCCO)=CC1c1cccs1 (stereo unspecified)

1. -1.04
2. -0.857
3. 0.277

###

Target: Torsin-1A (Homo sapiens)
Assay: TOR1A wild-type binding on microarray – cell lysate, small-molecule microarray, lysate, 635/667 nm, primary screen (AID 1149)
Conditions: COS7 hTOR1A-WT lysate, 635 nm fluorescence, higher = more signal
Each entry gets NO if its composite z-score stays under 0.1, and YES if its composite z-score is 0.1 or above.

Look over these answered cases.
compound	labelValue
C=CCNC(=O)[C@@H]1[C@H]2C(=O)O[C@H](c3ccccc3)[C@H](c3ccccc3)N2[C@H](c2ccc(OCCO)cc2)[C@@]12C(=O)N(C(=O)OCCOC)c1ccc(C#CCNC(N)=O)cc12	YES
CCCC1(C(=O)OC)C=C2C(=C(c3ccccc3)C(=O)C2C)CN1 (stereo unspecified)	YES
C=CC[C@]1(C(N)=O)N=C(c2ccc(OCCCO)cc2)O[C@H]1c1ccccc1	YES
CCN(CC)c1ccc(N2CC=CC34O[C@@H]5/C=C\CCC(C)OC(=O)C5[C@H]3C(=O)N(CCCCCO)[C@@H]4C2=O)cc1 (stereo partly specified)	NO
CC(=O)NCCCC[C@@H]1NC(=O)[C@H]2C[C@@H](C(=O)O)[C@@H](c3ccc(O)cc3)N2C1=O	YES

Given the entry "[N-]=[N+]=Nc1ccccc1C[C@]1(C(=O)NCc2ccccc2)N=C(c2ccc(OCCCO)cc2)O[C@H]1c1ccccc1N=[N+]=[N-]" , answer whether its composite z-score meets or surpasses 0.1. YES

Determine whether this compound has composite z-score no lower than 0.1: CCCCN1CC=CC23O[C@@H]4C=CCCOC(=O)C4[C@H]2C(=O)N(CCCCCO)[C@@H]3C1=O (stereo partly specified) YES

For this compound, is measured composite z-score 0.1 or higher? "CCOC(=O)C1=CC[C@@H](c2ccc(C(F)(F)F)cc2)N(S(=O)(=O)c2ccc(C)cc2)[C@H]1c1ccccc1" YES

Does the compound "COc1ccc([Si](C)(C)[C@H]2[C@H](CCn3cc([C@H](O)c4ccccc4)nn3)O[C@@]3(C(=O)N(C)c4ccccc43)[C@@H]2C)cc1" have recorded composite z-score that is 0.1 or more? NO

Evaluate "O=c1cccc(-c2ccccc2Cl)o1" : composite z-score at minimum 0.1? YES

Please indicate if the recorded composite z-score for "COC(=O)[C@]1(Cc2ccccc2)N=C(c2ccc(OCCCO)cc2)O[C@@H]1c1ccccc1N=[N+]=[N-]" meets or exceeds 0.1. NO

Please tell me: is the compound "COc1ccc([C@H]2C[C@H]3C(I)=C[C@@H]2C(=O)[C@]32CO2)cc1" at or over 0.1 in terms of composite z-score? NO

Hi, just wondering whether [N-]=[N+]=NCc1ccccc1C[C@@]1(C(=O)NCC(O)CO)N=C(c2ccc(OCCCO)cc2)O[C@@H]1c1ccccc1 (stereo partly specified) shows composite z-score of 0.1 or higher. YES

Is it the case that "COc1ccccc1CN1C(=O)c2ccccc2[C@@]2(Cc3ccccc3N(CCCN(C)C)C2=O)[C@@H]1c1ccc(CO)cc1" has composite z-score reaching or exceeding 0.1? NO

Item CCC(CC)C(O)C1C=CC2C(=O)N(c3ccccc3)C(=O)C2N1Nc1ccccc1 (stereo unspecified) with composite z-score of 0.1 or above? NO

Say whether CN1C(=O)C2C=CC(C(O)c3ccccc3)N(N3CCCCC3)C2C1=O (stereo unspecified) shows composite z-score of 0.1 or more. YES
